// data source = paper PMC11612208

# Test name: In vivo pharmacokinetics, IV and PO
# Condition details: female, C57BL6, plasma, iv; I.V. 1 mg/kg, mouse
Measured parameter: half-life (h)
Give the quantity in h, number only.

Which half-life value is on record for COc1ccc2c(Nc3ccc(S(=N)(=O)NCC(C)O)cc3)ccnc2c1 (stereo not shown) ?
48.3

====

# Test name: In vivo pharmacokinetics, IV and PO
# Condition details: female, C57BL6, plasma, iv; I.V. 1 mg/kg, mouse; approximate given extrapolation from a portion of AUCinf
Measured parameter: clearance

For the molecule COc1ccc2c(Nc3ccc(S(=N)(=O)NCC(C)O)cc3)ccnc2c1 (stereo not shown) , what clearance is on record?
~27.7 mL/min/kg
